Biological target: GST-Nv-NF-kB (Ser allele) (Nematostella vectensis, UniProt A7UNT2 2-411)
Sequence: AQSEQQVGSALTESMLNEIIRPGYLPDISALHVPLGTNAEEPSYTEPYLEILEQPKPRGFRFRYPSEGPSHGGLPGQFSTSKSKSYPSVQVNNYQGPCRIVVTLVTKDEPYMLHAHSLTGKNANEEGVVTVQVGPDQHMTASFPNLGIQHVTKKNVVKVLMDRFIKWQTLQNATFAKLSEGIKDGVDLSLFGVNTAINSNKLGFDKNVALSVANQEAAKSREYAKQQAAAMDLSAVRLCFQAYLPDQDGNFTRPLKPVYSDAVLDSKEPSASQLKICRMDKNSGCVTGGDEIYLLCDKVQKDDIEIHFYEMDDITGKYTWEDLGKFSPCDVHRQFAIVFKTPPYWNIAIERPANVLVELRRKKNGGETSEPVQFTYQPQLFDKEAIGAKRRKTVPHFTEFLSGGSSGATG
Assay: protein-binding microarray (PBM); PBM: ~300 nM protein, 6 mM HEPES pH 7.8, 80 mM KCl, 0.5 mM EDTA, 0.5 mM EGTA, 6% glycerol, 35 ng/ul poly-dIdC, 1% milk, 1 h, room temperature; high values mean tight binding
Details: dsDNA, one strand shown
Exam item: assign 1.0 to entries whose binding signal is below 4 z-score and 0.0 to entries at or above 4 z-score. Note that a value of exactly 4 z-score receives 0.0.

RESIDUE CODES	GROUP
CCGATTAACATCAAACTTTTCCCTGATGTTAATCGGGTCTTGATTCGCTTGACGCTGCTG	0.0
CCGATTAACATCAAAAATCCCCTTGATGTTAATCGGGTCTTGATTCGCTTGACGCTGCTG	0.0
CCGATTAACATCAGGCTATTCCCTGATGTTAATCGGGTCTTGATTCGCTTGACGCTGCTG	1.0
CCGATTAACATCACCCCACCCCCTGATGTTAATCGGGTCTTGATTCGCTTGACGCTGCTG	1.0
CCGATTAACATCAATAACCCCCCTGATGTTAATCGGGTCTTGATTCGCTTGACGCTGCTG	0.0
CCGATTAACATCAGAATTTCCCATGATGTTAATCGGGTCTTGATTCGCTTGACGCTGCTG	0.0

Q: Does the reported binding signal of CCGATTAACATCAGGGGGGTGGATGATGTTAATCGGGTCTTGATTCGCTTGACGCTGCTG stay below 4 z-score?
Ans: 0.0

Q: Quick check: binding signal of CCGATTAACATCAAACTCCCCCTTGATGTTAATCGGGTCTTGATTCGCTTGACGCTGCTG under 4 z-score?
Ans: 0.0

Q: A record lists CCGATTAACATCAGGGGATTCTATGATGTTAATCGGGTCTTGATTCGCTTGACGCTGCTG . Is its binding signal below 4 z-score?
Ans: 0.0

* * *

molecular target: GST-Hu-p50 (Homo sapiens, UniProt P19838 7-356); assay: protein-binding microarray (PBM); PBM: ~300 nM protein, 6 mM HEPES pH 7.8, 80 mM KCl, 0.5 mM EDTA, 0.5 mM EGTA, 6% glycerol, 35 ng/ul poly-dIdC, 1% milk, 1 h, room temperature; Ap Aiptasia and Nv Nematostella (sea anemones) / Co Capsaspora / Aq Amphimedon (sponge) / Dm Drosophila / Hu human; RHD is the Rel homology domain; high values mean tight binding; settings: dsDNA, one strand shown
Sequence (P19838 7-356): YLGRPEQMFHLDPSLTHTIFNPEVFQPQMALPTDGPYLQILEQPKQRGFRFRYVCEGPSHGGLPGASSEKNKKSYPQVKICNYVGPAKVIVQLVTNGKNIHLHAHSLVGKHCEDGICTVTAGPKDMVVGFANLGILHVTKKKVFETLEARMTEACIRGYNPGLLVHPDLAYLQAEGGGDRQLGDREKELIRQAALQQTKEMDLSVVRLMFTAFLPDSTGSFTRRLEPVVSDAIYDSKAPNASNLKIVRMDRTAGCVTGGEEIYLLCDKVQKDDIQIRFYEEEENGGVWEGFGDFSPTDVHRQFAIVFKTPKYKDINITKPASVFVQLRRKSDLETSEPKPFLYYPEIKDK
Given measured binding signal, output Condition met if it is greater than or equal to 5 z-score and Condition not met if not.

Examples with answers:
RESIDUE CODES	GROUP
CCGATTAACATCAGGTAATTTTATGATGTTAATCGGGTCTTGATTCGCTTGACGCTGCTG	Condition not met
CCGATTAACATCACGGGATCCCCTGATGTTAATCGGGTCTTGATTCGCTTGACGCTGCTG	Condition not met
CCGATTAACATCAAACCCCCCCTTGATGTTAATCGGGTCTTGATTCGCTTGACGCTGCTG	Condition met
CCGATTAACATCAGGGAAAACAATGATGTTAATCGGGTCTTGATTCGCTTGACGCTGCTG	Condition not met
CCGATTAACATCAGGGGAAAATATGATGTTAATCGGGTCTTGATTCGCTTGACGCTGCTG	Condition met
CCGATTAACATCAGGGGGTTTGATGATGTTAATCGGGTCTTGATTCGCTTGACGCTGCTG	Condition met

Q: In plain terms: is recorded binding signal at least 5 z-score for CCGATTAACATCAACTTTCCCCCTGATGTTAATCGGGTCTTGATTCGCTTGACGCTGCTG ?
Ans: Condition met

Q: Threshold query (binding signal >= 5 z-score) on CCGATTAACATCAGGGGATTTAATGATGTTAATCGGGTCTTGATTCGCTTGACGCTGCTG
Ans: Condition met

Q: Given the entry CCGATTAACATCAGGGGGGTATATGATGTTAATCGGGTCTTGATTCGCTTGACGCTGCTG , answer whether its binding signal meets or surpasses 5 z-score.
Ans: Condition not met

Q: Is the recorded value of binding signal equal to or greater than 5 z-score for this sequence? CCGATTAACATCACAGATTCCCCTGATGTTAATCGGGTCTTGATTCGCTTGACGCTGCTG
Ans: Condition met
